protein stability index for assorted variants
B1: PI4K2A (parent)
chain: FVKDPQGRIIAVFKPKNEEPYGHL

variants of: B1; assay: protein stability index of a GFP-peptide fusion (GPS, HEK-293T) (PSI 1-6); higher = more stable; conditions: c terminus: a fixed tail appended;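 also: lentivirally expressed fusions sorted by FACS into six bins by GFP to DsRed ratio, PSI derived from sequencing read proportions per bin multiplied by bin number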
Answer using only a numeral; do not append any unit.

Known results for variants:
F13E :: 2.05
H23N :: 1.99
K16H :: 1.97
E18F :: 1.96
V12M :: 2
F13L :: 1.96

Q. Item P5D has what recorded protein stability index?
A. 2.03

Q. Item G22E has what recorded protein stability index?
A. 2.02

Q. Item V12R has what recorded protein stability index?
A. 1.96

Q. Item P5E has what recorded protein stability index?
A. 2.04
